Reference for the values: patent US6346249

Molecular target: T1, recombinant human A33 antigen (human, UniProt Q99795 22-233, limits assumed)
T1 construct: also called human antigen A33; immobilized recombinant human A33
T1 sequence (looked up): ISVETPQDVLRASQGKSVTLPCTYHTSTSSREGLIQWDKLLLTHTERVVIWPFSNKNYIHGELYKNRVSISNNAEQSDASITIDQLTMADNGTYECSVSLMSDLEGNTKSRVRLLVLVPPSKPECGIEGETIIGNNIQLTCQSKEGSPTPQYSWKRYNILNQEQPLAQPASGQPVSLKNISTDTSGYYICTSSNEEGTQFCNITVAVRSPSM
Experiment: SPR (Biacore), recombinant human A33 immobilized on CM5 chip; Kd calculated from koff/kon
PROPERTY LABEL: Kd
# answer = value followed by unit

Recorded Kd, per entry:
IN: What Kd value was documented for this binder, humanized Fab B (human VLB and human VHB) (Fab, V domains shown) VH: EVQVMESGGGLVKPGGSLRLSCAASGIGFSHYGISWVRQAPGKGLEWVSYIYPNYGSVDYASSVNGRFTISLDNAQNSLYLQMNSLRAEDTAVYFCARDRGYYSGSRGTRLDLWGQGTLVTVSS VL: ELQMTQSPSSLSASVGDRVTITCLASEFLFNGVSWYQQKPGKVPKFLIYGASNLESGVPSRFSGSGSGTDFTLTISSLQPEDVATYYCLGGYSGSSGLTFGGGTKVEIK ?
OUT: 1.7 nM

IN: Param item = rabbit Fab 1 (rabbit VH1, VL1; chimeric rabbit/human Fab) (Fab, V domains shown, Soluble Fab from E. coli; also called rabbit 1; rabbit clone 1) VH: QQQVMESGGGLVTLGGSLTLTCKASGIDFSNNGISWVRQAPGKGLEWILYIYPDYGSTDYASWVNGRFTISLDNAQNTVFLQMTSLTAADTATYFCARDRGAYAGSRGTRLDLWGQGTLVTVSS VL: EFDMTQTPPSLSASVGETVRIRCLASEFLFNGVSWYQQKPGKPPKFLISGASNLESGVPPRFSGSGSGTDYTLTIGGVQAEDVATYYCLGGYSGSSGLTFGAGTNVEIK ; retrieve measured Kd.
OUT: 0.39 nM

Consider the additional binder presented here.
IN: # lookup: Kd of humanized Fab A (human VLA and human VHA) (Fab, V domains shown) VH: EVQVMESGGGLVKPGGSLRLSCAASGIDFSHYGISWVRQAPGKGLEWVSYIYPNYGSVDYASSVNGRFTISFDNAQNSLYLQMNSLRAEDTAVYYCARDRGYYSGSRGTRLDLWGQGTLVTVSS VL: ELQMTQSPSSLSASVGDRVTITCLASEFLFNGVSWYQQKPGKVPKFLIYGASNLESGVPSRFSGSGSGTDYTLTISSLQPEDVATYYCLGGYSGSSGLTFGGGTKVEIK
OUT: 5.6 nM
